# pKd per record follows
target: MtrR D171A (Neisseria gonorrhoeae, UniProt P39897, D171A); construct: Hexa-histidine tag with TEV protease cleavage site (N, cleaved yes); test: biochemical
Recall that pKd is obtained by taking minus log10 of the concentration measured in molar.

{"item smiles": "C[C@]12CC[C@H]3[C@@H](CCC4=CC(=O)CC[C@@]43C)[C@@H]1CC[C@@H]2O", "pKd": 4.51}

Please turn your attention to the following entry.
Asked: For the molecule CC(=O)[C@H]1CC[C@H]2[C@@H]3CCC4=CC(=O)CC[C@]4(C)[C@H]3CC[C@]12C , what pKd is on record?
Given back: 5.08

----------
biological target: MtrR (Neisseria gonorrhoeae, UniProt P39897); construct: Hexa-histidine tag with TEV protease cleavage site (N, cleaved yes); made in house; host or cells: E. coli Rosetta Gami B(DE3) pLysS; assay: Isothermal titration calorimetry, ligand binding to MtrR WT; conditions: equilibrium dissociation constant (Kd), MtrR WT, ITC, 25 °C, 1% MeOH
Sequence (P39897 whole entry): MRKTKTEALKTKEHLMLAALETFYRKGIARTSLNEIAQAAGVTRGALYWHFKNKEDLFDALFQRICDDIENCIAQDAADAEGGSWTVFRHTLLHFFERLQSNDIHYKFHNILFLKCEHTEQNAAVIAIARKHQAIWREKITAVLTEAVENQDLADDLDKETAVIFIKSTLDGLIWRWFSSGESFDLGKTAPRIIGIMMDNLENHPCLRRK
metric: Kd (nM)
The response must be a number in nM with no trailing unit.

Asked: For the compound shown here, CC(=O)[C@H]1CC[C@H]2[C@@H]3CCC4=CC(=O)CC[C@]4(C)[C@H]3CC[C@]12C , give the reported Kd.
Given back: 2750

----------
target: MtrR R176E (Neisseria gonorrhoeae, UniProt P39897, R176E); construct: Hexa-histidine tag with TEV protease cleavage site (N, cleaved yes); made in house; host or cells: E. coli Rosetta Gami B(DE3) pLysS; test: biochemical; type: binding
The reader will find reported pKd values listed item by item below.
Scale for pKd: -log10 of concentration given in mol/L; no unit attached.

Reference set, count: 2
{"compound": "C[C@]12CC[C@H]3[C@@H](CCC4=CC(=O)CC[C@@]43C)[C@@H]1CC[C@@H]2O [Testosterone, testosterone]", "measured target": "MtrR R176E (Neisseria gonorrhoeae, UniProt P39897, R176E)", "pKd": 5.43}
{"compound": "C[C@]12CC[C@@H]3c4ccc(O)cc4CC[C@H]3[C@@H]1CC[C@@H]2O [β-Estradiol, β-estradiol]", "measured target": "MtrR R176E (Neisseria gonorrhoeae, UniProt P39897, R176E)", "pKd": 6.14}

Asked: Kindly state the measured pKd obtained for CC(=O)[C@H]1CC[C@H]2[C@@H]3CCC4=CC(=O)CC[C@]4(C)[C@H]3CC[C@]12C [Progesterone, progesterone] with MtrR R176E (Neisseria gonorrhoeae, UniProt P39897, R176E).
Given back: 5.07

----------
target: MtrR W136A (Neisseria gonorrhoeae, UniProt P39897, W136A); construct: Hexa-histidine tag with TEV protease cleavage site (N, cleaved yes); assay: biochemical
Sequence (P39897 whole entry W136A): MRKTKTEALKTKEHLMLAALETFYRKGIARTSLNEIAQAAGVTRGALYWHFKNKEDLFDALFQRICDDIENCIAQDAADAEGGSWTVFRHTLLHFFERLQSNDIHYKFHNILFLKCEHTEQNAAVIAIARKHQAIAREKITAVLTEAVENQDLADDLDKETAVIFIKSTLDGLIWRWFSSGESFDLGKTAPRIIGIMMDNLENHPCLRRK
Recorded pKd, one value per entry.
# pKd is unitless: minus log10 of the molar concentration; print number only

{"item smiles": "C[C@]12CC[C@H]3[C@@H](CCC4=CC(=O)CC[C@@]43C)[C@@H]1CC[C@@H]2O", "pKd": 5.24}

Attention now shifts to the item below.
Asked: Which measured pKd value corresponds to C[C@]12CC[C@@H]3c4ccc(O)cc4CC[C@H]3[C@@H]1CC[C@@H]2O ?
Given back: 5.97
